test system: HCT-15 colon; experiment: NCI tumour cell line growth inhibition, 48 h
Recorded Metric: TGI

# Compound, Recorded Metric, Result
measured = [
    ("COc1ccc(-c2c(/C=N/OCC(=O)O)c3sc4ccccc4n3c2/C=N/OCC(=O)O)cc1", "TGI", "> 50 µM"),
    ("CCOC(=O)/C=C(/C(=O)OCC)n1cc(C)c(=O)n(Cc2cn(CCCCOC(C)=O)nn2)c1=O", "TGI", "> 100 µM"),
    ("Cc1nc(Nc2ccc(Cl)cc2)sc1C(=O)Nc1cccc2c(=O)[nH][nH]c(=O)c12", "TGI", "71.3 µM"),
    ("c1ccc(N2CCN(CCN3CCc4c([nH]c5ccccc45)C3c3cccnc3)CC2)cc1 (stereo unspecified)", "TGI", "> 100 µM"),
    ("O=C(NCCCN1CCN(CCCNC(=O)Nc2cc(Cl)ccc2Cl)CC1)Nc1cc(Cl)ccc1Cl", "TGI", "> 100 µM"),
]

Ask: Recall the reported TGI of O=C(Nc1ccccc1)N1C(c2ccccc2)=N[C@@H](c2ccccc2)[C@@H]1c1ccccc1 when tested on HCT-15 colon.
Result: 60.4 µM

Ask: Recall the reported TGI of O=C(Oc1cncc(Cl)c1)c1cc2ccccc2sc1=O when tested on HCT-15 colon.
Result: > 100 µM

Ask: Recall the reported TGI of C[C@@H]1C[C@@H]2OC(=O)[C@]3(C)[C@H]2[C@@H](OC3(C)O)[C@]2(C)C(=O)C=C[C@@H]12 (stereo partly specified) when tested on HCT-15 colon.
Result: 30.2 µM

Ask: Recall the reported TGI of O=C(NC1=C(Cl)C(=O)c2ccccc2C1=O)C(=O)c1c(O)c2ccccc2oc1=O when tested on HCT-15 colon.
Result: 13.7 µM

Ask: Recall the reported TGI of O=C(O)CCN1C(=S)CSC1=S when tested on HCT-15 colon.
Result: > 100 µM

====

The following molecules are listed with their measured TGI values.
tested on: 786-0 renal; assay: NCI tumour cell line growth inhibition, 48 h
Please reply with the bare figure in µM and do not write the unit itself.

Reference set (4 entries):
# Molecule, TGI / µM
measured = [
    ("Cn1cnnc1Sc1c([N+](=O)[O-])nc(-c2ccc([N+](=O)[O-])cc2)n1C", 31.8),
    ("CNCC(SC)c1ccc(O)c(O)c1 (stereo not given)", 39.1),
    ("O=C(OCC1=CC(=O)c2ccccc2C1=O)c1ccccc1", 33.8),
    ("C[C@H](CCc1nc(C#N)c(N)o1)[C@H]1CC[C@H]2[C@@H]3CCC4C[C@@H](O)CC[C@]4(C)[C@H]3C[C@@H](O)[C@]12C (stereo not given in full)", 24),
]

Ask: Complete the entry with TGI for CCN(CC)CC[n+]1ccc2c(C)c3[nH]c4ccccc4c3c(C)c2c1
Result: 5.96

====

system: SNB-75 CNS; assay: NCI tumour cell line growth inhibition, 48 h
Recorded Metric: TGI

Reference set (7 entries):
# Molecule, Result
rows = [
    ("COc1ccc(/C=C/C(=O)c2cc(CN(C)C)c(O)c(CN(C)C)c2)cc1", "> 100 µM"),
    ("Cc1noc(-c2ccc(C(=O)O)[nH]2)c1Br", "> 100 µM"),
    ("COc1ccc(C(=O)Cn2c(C(=O)c3ccc(Cl)cc3)nc(-c3ccccc3)c2-c2ccccc2)cc1", "> 100 µM"),
    ("Cc1cccc(C=NC23CC4CC(CC(C4)C2)C3)c1", "> 100 µM"),
    ("C[C@H](CCc1nc(C#N)c(N)o1)[C@H]1CC[C@H]2[C@@H]3CCC4C[C@@H](O)CC[C@]4(C)[C@H]3C[C@@H](O)[C@]12C (stereo partly drawn)", "25 µM"),
    ("Nc1ccnc2c1ncn2[C@H]1C[C@H](O)[C@@H](CO)O1", "> 100 µM"),
    ("C/C(CC(O)(C(F)(F)F)C(F)(F)F)=N\\O", "> 10 µM"),
]

Ask: Complete the entry with TGI for O=C(CCC(NC(=O)OCc1ccccc1)C(=O)OCc1ccccc1)Nc1cccc(OCc2ccccc2)c1 (stereo not drawn)
Result: > 100 µM
